Biological target: T1, mouse TMEM106B (mouse, UniProt Q80X71 2-275)
T1 construct: on transiently transfected HEK293 cells, or natively expressed on mouse Neuro2a cells; also called moTMEM106B; murine TMEM106B
Test: FACS, HEK293 transfectants;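 also: flow cytometry binding of hybridoma supernatants to HEK293 cells transiently expressing human, cyno or mouse TMEM106B, read as anti-mouse-APC median fluorescence, live cells only, 30 min on ice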
result type: fold-change over parental HEK293

binder="anti-TMEM106B antibody TM-18 (antibody, V domains shown) VH: EVRLQQSGPELVKPGASVKISCKTSGYTFTDYYMNWVKQSHGKSLEWIVNINPNNGDAFYNQKFKGKATLTVDKSSNTAYLDLRSLTSEDSAVYYCAREGQLRLRRVYAMDYWGQGTSVTVSS VL: DIVLAQSPASLAVSLGQRATISCRASKSVSISVYTYVHWYQQKPGQPPKLLIYLASNLESGVPARFSGSGSGTDFTLNIHPVEEEDAATYYCQHSRELPYTFGGGTKLEIK" experimental_value="29 fold"
binder="anti-TMEM106B antibody TM-33 (antibody, V domains shown, mouse IgG from hybridoma) VH: EFQLQQSGPELVKPGASVKISCKASGYSFTDYNMNWVKQSNGKSLEWIGVINPNYGTTSYNQKFKGKATLTVDQSSSTAYMQLNSLTSEDSAVYYCASSYWGQGTLVTVSA VL: DIVMTQSQKFMSTTVGDRVSITCKASQNVGTAVAWYQQKPGQSPKLLIYSASNRYTGVPDRFTGSGSGTDFTLTISNMQSEDLADYFCQQYSSYPYTFGGGTKLEIK" experimental_value="45.8 fold"
binder="anti-TMEM106B antibody TM-1 (antibody, V domains shown) VH: QVQLQQSGAELVRPGTSVKVSCKASGYAFTNYLIEWVKQRPGQGLEWIGVINPGSGGTKYNEKLKGKATLTADKSSSTAYMQLSSLTSVDSAVYFCARRGYTIYDFYAMDYWGQGTSVTVSS VL: DVLMTQTPLSLPVSLGDHASISCRSSQSIVYNNGNTYLEWYLQKPGQSPKLLIYKVSNRFSGVPDRFSGSGSGTDFTLKISRVEAEDLGVYYCFQVSHVPFTFGSGTKLEIK" experimental_value="4.61 fold"
binder="anti-TMEM106B antibody TM-6 (antibody, V domains shown, mouse IgG from hybridoma) VH: QVQLQQSGAELVKPGASVKLSCKASGYTFTEYTIHWVKQRSGQGLEWIGWFYPGSTYIDYNEKFKDKATLTADKSSSTVYLELSRLTSEDSAVYFCARHEEDYSNWFPFWGQGTLVTVSA VL: DIQMSQSSSYLSVSLGGRVTITCKASDHINNWLAWYQQKPGNAPRLLISGATSLETGVPSRFSGSGSGKDYTLSITSLQTEDVATYYCQQYWSSPYTFGGGTKLEIK" experimental_value="1.25 fold"
binder="anti-TMEM106B antibody TM-21 (antibody, V domains shown) VH: EVQLVESGGGLVKPGGSLKLSCAASGFTFSNYAMSWVRETPEKRLEWVAFISDGGGYIYYADNVKDRFTISRDNAKNNLYLQMRHLKSEDTAMYYCARDGGTGFTYWGQGTLVTVSV VL: DIVMTQAAFSNPVTLGTSASISCRSSKSLLHSNGITYLFWYLQKPGQSPQLLIYQMSNLASGVPDRFSSSGSGTDFTLRISRVEAEDVGVYYCVQNLELPYTFGGGTKLEIK" experimental_value="46.5 fold"
